Value source: patent US11702404B2

- assay text: Microsomal stability, human liver microsomes (predicted hepatic clearance)
- measurement context: predicted from in vitro microsomal stability data
endpoint name: Predicted Hepatic Clearance (Pred. Cl.) (L/h/kg)
Answers are plain numbers, in L/h/kg.

For orientation, consider the following solved cases.
[[record]]
molecule = "COCCn1c(Cc2cc(F)c(-c3cccc(OCc4cc(F)c(Cl)cc4F)n3)cc2F)nc2ccc(C(=O)O)cc21 [Example 564]"
endpoint_name = "Predicted Hepatic Clearance (Pred. Cl.)"
value_observed = 0.205

[[record]]
molecule = "COCCn1c(Cc2cc(F)c(-c3cccc(OCc4ccc(C#N)c(F)c4F)n3)cc2F)nc2ccc(C(=O)O)cc21 [Example 859]"
endpoint_name = "Predicted Hepatic Clearance (Pred. Cl.)"
value_observed = 0.11

[[record]]
molecule = "N#Cc1ccc(COc2nccc(-c3ccc(Cc4nc5ccc(C(=O)O)cc5n4C[C@@H]4CCO4)cc3F)n2)c(F)c1 [Example 403]"
endpoint_name = "Predicted Hepatic Clearance (Pred. Cl.)"
value_observed = 0.297

[[record]]
molecule = "COCCn1c(Cc2ccc(-c3cccc(OCc4cccc5scnc45)n3)cc2F)nc2ccc(C(=O)O)cc21 [Example 146]"
endpoint_name = "Predicted Hepatic Clearance (Pred. Cl.)"
value_observed = 0.44

[[record]]
molecule = "CC(=O)N1CCC[C@H]1Cn1c(Cc2ccc(-c3ccc(F)c(OCc4ccc(Cl)cc4F)c3)cc2F)nc2ccc(C(=O)O)cc21 [Example 464]"
endpoint_name = "Predicted Hepatic Clearance (Pred. Cl.)"
value_observed = 0.24

[[record]]
molecule = "COCCn1c(Cc2cc(F)c(-c3cccc(OCc4ccc(Br)c5c4COC5)n3)cc2F)nc2ccc(C(=O)O)cc21 [Example 874]"
endpoint_name = "Predicted Hepatic Clearance (Pred. Cl.)"
value_observed = 0.11


Okay, here is my list. What is Predicted Hepatic Clearance (Pred. Cl.) for each of these?
1. N#Cc1ccc(COc2cccc(-c3ccc(Cc4nc5c(F)cc(C(=O)O)cc5n4Cc4ncco4)c(F)c3)n2)c(F)c1 [Example 625]
2. N#Cc1ccc(COc2nc(-c3cc(F)c(Cc4nc5ccc(C(=O)O)cc5n4CC4(CF)CC4)cc3F)ncc2F)c(F)c1 [Example 161]
3. O=C(O)c1cc(F)c2nc(Cc3ccc(-c4ccc(F)c(OCc5ccc(C(F)F)cc5F)n4)cc3F)n(CC34CC(CO3)C4)c2c1 [Example 770]
4. COCCn1c(Cc2cc(F)c(-c3cccc(OCc4ccc(C#N)nc4)n3)cc2F)nc2c(F)cc(C(=O)O)cc21 [Example 657]
5. COCCn1c(Cc2cc(F)c(-c3cccc(OCc4ccc(C(F)(F)F)cn4)n3)cc2F)nc2ccc(C(=O)O)cc21 [Example 868]

# output
1. 0.16
2. 0.23
3. 0.11
4. 0.24
5. 0.21

Need Predicted Hepatic Clearance (Pred. Cl.) for each of these molecules.
1. COCCn1c(Cc2ccc(-c3cccc(OCc4ccc(C#N)cc4OC)n3)cc2F)nc2ccc(C(=O)O)cc21 [Example 243]
2. N#Cc1ccc(COc2ccc(F)c(-c3cc(F)c(Cc4nc5c(F)cc(C(=O)O)cc5n4CC45COC(C4)C5)cc3F)n2)c(F)c1 [Example 782]
3. COCCn1c(Cc2cc(F)c(-c3cccc(OCc4ccc(F)cc4Cl)n3)cc2F)nc2ccc(C(=O)O)cc21 [Example 818]
4. N#Cc1ccc(COc2cccc(-c3cc(F)c(Cc4nc5ccc(C(=O)O)cc5n4CC4(CF)CC4)cc3F)n2)c(F)c1 [Example 429]
5. CCn1nncc1Cn1c(Cc2ccc(-c3cccc(OCc4ccc(C#N)cc4F)n3)cc2F)nc2ccc(C(=O)O)cc21 [Example 370]
6. COCCn1c(Cc2ccc(-c3cccc(OCc4ccc(C#N)cc4F)n3)cc2C#N)nc2ccc(C(=O)O)cc21 [Example 22]

# output
[0.61, 0.67, 0.36, 0.23, 0.4, 0.18]

Would you mind listing Predicted Hepatic Clearance (Pred. Cl.) for each of the following molecules?
1. COCCn1c(Cc2cc(F)c(-c3cccc(OCc4cc(F)c(C(F)(F)F)cc4F)n3)cc2F)nc2ccc(C(=O)O)cc21 [Example 867]
2. N#Cc1ccc(COc2cccc(-c3cc(F)c(Cc4nc5ccc(C(=O)O)cc5n4Cc4ccon4)c(F)c3)n2)c(F)c1 [Example 594]
3. N#Cc1ccc(COc2nccc(-c3cc(F)c(Cc4nc5ccc(C(=O)O)cc5n4CC4(CF)CC4)cc3F)n2)c(F)c1 [Example 431]
4. COCCn1c(Cc2ccc(-c3cccc(OCc4cccc(S(C)(=O)=O)c4)n3)cc2F)nc2ccc(C(=O)O)cc21 [Example 495]
5. N#CCC1(Cn2c(Cc3ccc(-c4ccc(F)c(OCc5ccc(C#N)cc5F)n4)cc3F)nc3c(F)cc(C(N)=O)cc32)CC1 [Example 597]

# output
1. 0.11
2. 0.26
3. 0.23
4. 0.35
5. 0.59

Kindly give each listed record's Predicted Hepatic Clearance (Pred. Cl.).
1. Cc1cc2nc(Cc3cc(F)c(-c4cccc(OCc5ccc(C#N)cc5F)n4)cc3F)n(C[C@@H]3CCO3)c2cc1C(=O)O [Example 921]
2. N#Cc1ccc(COc2nc(-c3cc(F)c(Cc4nc5c(F)cc(C(=O)O)cc5n4CC4(CF)CC4)cc3F)ncc2F)c(F)c1 [Example 167]

# output
[0.17, 0.36]
